Target: UniProtKB O14965
Sequence (O14965 whole entry): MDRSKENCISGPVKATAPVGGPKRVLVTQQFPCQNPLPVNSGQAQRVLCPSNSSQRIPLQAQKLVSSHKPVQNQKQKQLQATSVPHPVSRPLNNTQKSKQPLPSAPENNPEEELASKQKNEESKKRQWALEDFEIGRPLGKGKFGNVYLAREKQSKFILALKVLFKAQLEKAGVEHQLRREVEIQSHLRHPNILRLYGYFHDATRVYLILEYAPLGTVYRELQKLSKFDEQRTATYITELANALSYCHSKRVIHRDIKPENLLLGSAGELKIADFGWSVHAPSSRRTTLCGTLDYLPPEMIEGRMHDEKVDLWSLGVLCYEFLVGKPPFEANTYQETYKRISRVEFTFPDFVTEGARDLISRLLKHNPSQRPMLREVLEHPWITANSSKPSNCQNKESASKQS
Assay: KiNativ assay
Assay type: binding
Settings: H929 live cell, read-out: inhibition (10 μM)
Recorded inhibition at 10 µM by entry
Measured Parameter: inhibition at 10 µM (%)

• Nc1ncc(-c2cccc([N+](=O)[O-])c2F)cc1-c1ccc2c(c1)CCNC2=O = 68.5
• Nc1ncc(-c2ccc(NS(=O)(=O)C3CC3)cc2OC2CCCCC2)cc1-c1ccc2c(c1)CCNC2=O = 45.4
• Nc1ncc(-c2cccc3ncsc23)cc1-c1ccc2c(c1)CCNC2=O = 17.4
• Nc1ncc(-c2ccc(NS(=O)(=O)C3CC3)cc2F)cc1-c1ccc2c(c1)CCNC2=O = 46.7
• CN(C1CC1)S(=O)(=O)c1ccc(-c2cnc(N)c(-c3ccc4c(c3)CCNC4=O)c2)c(F)c1 = 27.5
• COc1cc(NS(=O)(=O)C2CC2)ccc1-c1cnc(N)c(-c2ccc3c(c2)CCNC3=O)c1 = 18

FYI, the data here is from patent US10710978B2.
